Target: Cynomolgus monkey C5 (cynomolgus monkey, UniProt A0A2K5U1T1 19-1676)
Test: cell-based or functional assay
Friendly reminder: Cyno Serum CP IC50, hemolysis assay, 5% serum below 20 nM is yes, at or above is no.

- binder: "H4H12168P (antibody, human IgG4, V domains shown, H4H: human IgG4 Fc with S108P hinge mutation) VH: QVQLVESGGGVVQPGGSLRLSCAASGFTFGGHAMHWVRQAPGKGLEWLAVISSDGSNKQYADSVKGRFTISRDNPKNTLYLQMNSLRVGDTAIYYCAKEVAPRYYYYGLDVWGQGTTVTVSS VL: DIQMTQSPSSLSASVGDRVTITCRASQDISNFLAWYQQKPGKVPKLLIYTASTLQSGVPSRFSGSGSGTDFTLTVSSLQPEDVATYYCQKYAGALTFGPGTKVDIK"
  assigned category: "yes"
- binder: "H4H12171P (antibody, human IgG4, V domains shown, H4H: human IgG4 Fc with S108P hinge mutation) VH: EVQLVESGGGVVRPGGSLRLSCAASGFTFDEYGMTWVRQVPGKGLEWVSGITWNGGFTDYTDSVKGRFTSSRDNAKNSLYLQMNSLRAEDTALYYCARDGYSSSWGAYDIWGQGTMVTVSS VL: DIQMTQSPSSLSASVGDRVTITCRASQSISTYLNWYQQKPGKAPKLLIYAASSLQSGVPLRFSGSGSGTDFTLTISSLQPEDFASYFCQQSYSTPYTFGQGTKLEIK"
  assigned category: "yes"
- binder: "H4H12161P (antibody, human IgG4, V domains shown, H4H: human IgG4 Fc with S108P hinge mutation) VH: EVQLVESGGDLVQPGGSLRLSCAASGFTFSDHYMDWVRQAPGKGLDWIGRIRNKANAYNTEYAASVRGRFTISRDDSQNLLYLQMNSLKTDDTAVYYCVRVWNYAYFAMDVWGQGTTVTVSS VL: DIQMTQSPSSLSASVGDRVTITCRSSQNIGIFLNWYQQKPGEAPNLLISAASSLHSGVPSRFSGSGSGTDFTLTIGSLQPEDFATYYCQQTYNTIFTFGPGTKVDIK"
  assigned category: "no"
- binder: "H4H11686N (antibody, human IgG4, V domains shown, tested with H4H prefix (human IgG4 Fc with S108P hinge mutation); also called H2M11686N) VH: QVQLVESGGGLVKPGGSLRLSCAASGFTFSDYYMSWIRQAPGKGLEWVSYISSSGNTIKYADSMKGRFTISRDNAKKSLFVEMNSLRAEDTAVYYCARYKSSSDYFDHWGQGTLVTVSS VL: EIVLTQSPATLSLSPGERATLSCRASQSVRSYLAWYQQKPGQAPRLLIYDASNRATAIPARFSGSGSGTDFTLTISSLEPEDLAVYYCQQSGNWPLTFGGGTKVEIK"
  assigned category: "yes"
- binder: "H4H12159P (antibody, human IgG4, V domains shown, H4H: human IgG4 Fc with S108P hinge mutation) VH: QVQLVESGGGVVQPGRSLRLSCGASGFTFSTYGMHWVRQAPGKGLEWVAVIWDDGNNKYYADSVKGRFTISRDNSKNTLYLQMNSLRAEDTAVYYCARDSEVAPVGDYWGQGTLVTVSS VL: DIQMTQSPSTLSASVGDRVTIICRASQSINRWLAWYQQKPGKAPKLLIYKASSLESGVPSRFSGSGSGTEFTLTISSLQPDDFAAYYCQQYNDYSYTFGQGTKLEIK"
  assigned category: "yes"
- binder: "H4H11683N (antibody, human IgG4, V domains shown, tested with H4H prefix (human IgG4 Fc with S108P hinge mutation); variable regions follow the numerical identifier; also called H2M11683N) VH: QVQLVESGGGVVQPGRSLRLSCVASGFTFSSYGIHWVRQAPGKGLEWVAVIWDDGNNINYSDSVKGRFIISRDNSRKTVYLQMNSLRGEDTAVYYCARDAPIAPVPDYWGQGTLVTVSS VL: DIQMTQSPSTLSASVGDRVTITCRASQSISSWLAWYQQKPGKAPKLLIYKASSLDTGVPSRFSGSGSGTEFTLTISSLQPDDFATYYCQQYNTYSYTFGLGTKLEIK"
  assigned category: "yes"
